- testTarget: Voltage-gated inwardly rectifying potassium channel KCNH2 (Homo sapiens)
- testMethodNotes: Human Ether-a-go-go-Related Gene (hERG) channel small molecule antagonists: fluorescence cell-based qHTS assay (AID 1671200);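 further: hERG-expressing U2OS cells given a thallium stimulus after FluxOR II dye loading; nearly all actives have a fitted effect of over 50% in size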
- settings: hERG-U2OS cells, FluxOR thallium flux fluorescence; series mostly up to 76.8 µM
Results filed as inconclusive are left out. Activity calls are given as the source filed them. The call rests on the fitted dose curve; in most records, active means well fitted inhibition curve with a large enough effect in the repeat runs; inconclusive means weak or mixed curves; inactive means flat fitted curve, though single readings scatter.
quantityName: outcome

compound: C=C(C)C(=O)OCCCCCCCCCCCC
reading: inactive
//
compound: Oc1c(Cl)cc(Cl)c(Cl)c1Cl
reading: inactive
//
compound: CCCCC(CC)COC(=O)/C=C\C(=O)OCC(CC)CCCC (stereo not drawn)
reading: inactive
